# Assayed system: Grb2 SH2 (UniProt P62993)
# Sequence (P62993 whole entry, looked up, the tested form may be a part): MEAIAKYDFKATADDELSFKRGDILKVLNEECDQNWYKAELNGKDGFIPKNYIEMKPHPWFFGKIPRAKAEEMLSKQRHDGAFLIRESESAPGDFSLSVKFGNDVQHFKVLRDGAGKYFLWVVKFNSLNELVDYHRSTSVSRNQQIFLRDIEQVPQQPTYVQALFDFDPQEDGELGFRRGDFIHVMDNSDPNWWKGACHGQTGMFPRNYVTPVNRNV
# Measurement notes: SH2 binding enrichment of the phosphorylated peptide, bacterial display (enrichment ratio); higher = better substrate or ligand; peptides without Tyr show the background;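 note: peptide library displayed on the E. coli surface as eCPX fusions, selected cells deep-sequenced, score is each peptide's frequency after selection divided by its frequency in the input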
Exercise: state measured SH2 binding enrichment for each of the sequences provided.
Give bare numbers.

Recorded SH2 binding enrichment for VKKNRYKDILP [PTPN12_Y64] on Grb2 SH2 (UniProt P62993) was 0.753

Recorded SH2 binding enrichment for QNTVDYFDLFG [PTPN11_Y62_G60V_YF] on Grb2 SH2 (UniProt P62993) was 1.14

Recorded SH2 binding enrichment for LQFRNYQQLFD [MAN2A1_Y442_K440R] on Grb2 SH2 (UniProt P62993) was 0.689

Recorded SH2 binding enrichment for RGVVMYTSKDR [ZG16B_Y136_M133V] on Grb2 SH2 (UniProt P62993) was 0.91

Recorded SH2 binding enrichment for DNEYAYLKAII [HNF4A_Y288] on Grb2 SH2 (UniProt P62993) was 0.732

Recorded SH2 binding enrichment for KKKKQYKDKFL [CASK_Y708_YF] on Grb2 SH2 (UniProt P62993) was 0.683

Recorded SH2 binding enrichment for DDPRTYQKYGY [OAS1_Y362_R361T] on Grb2 SH2 (UniProt P62993) was 0.866

Recorded SH2 binding enrichment for DSSIRYLQEIY [FGG_Y135] on Grb2 SH2 (UniProt P62993) was 0.935

Provide reported SH2 binding enrichment for each item, in the same order as listed.
1. SVTCTFSPALN [TP53_Y126_Y126F]
2. LTERGYSFVTT [ACTA1_Y200]
3. TSYQMYDKGLV [IARS2_Y231_F227S]
4. GYRVCYTPDSR [PTPRF_Y451_Y450C]
5. LEAVSYSSPYA [RNLS_Y190_R193P]

Result:
[0.627, 0.794, 0.999, 0.769, 0.826]

Provide reported SH2 binding enrichment for each item, in the same order as listed.
1. LNPFIYSLRNW [OR1A2_Y288]
2. VVLVSYVPSSQ [SH2B1_Y624]
3. EKEQNYDLTQV [ECD_Y448_E452Q]
4. RRIFSYRGHLW [VHL_Y112_H110Y_YF]

Result:
1. 1.23
2. 1.51
3. 0.79
4. 1.07
